Entries annotated with measured RLU
molecular target: T1, human CD71 extracellular domain (human, UniProt P02786 89-760); experiment: primary ELISA; note: test concentration or dose not given here
T1 construct: also called hCD71; human CD71-ECD
T1 sequence (P02786 89-760): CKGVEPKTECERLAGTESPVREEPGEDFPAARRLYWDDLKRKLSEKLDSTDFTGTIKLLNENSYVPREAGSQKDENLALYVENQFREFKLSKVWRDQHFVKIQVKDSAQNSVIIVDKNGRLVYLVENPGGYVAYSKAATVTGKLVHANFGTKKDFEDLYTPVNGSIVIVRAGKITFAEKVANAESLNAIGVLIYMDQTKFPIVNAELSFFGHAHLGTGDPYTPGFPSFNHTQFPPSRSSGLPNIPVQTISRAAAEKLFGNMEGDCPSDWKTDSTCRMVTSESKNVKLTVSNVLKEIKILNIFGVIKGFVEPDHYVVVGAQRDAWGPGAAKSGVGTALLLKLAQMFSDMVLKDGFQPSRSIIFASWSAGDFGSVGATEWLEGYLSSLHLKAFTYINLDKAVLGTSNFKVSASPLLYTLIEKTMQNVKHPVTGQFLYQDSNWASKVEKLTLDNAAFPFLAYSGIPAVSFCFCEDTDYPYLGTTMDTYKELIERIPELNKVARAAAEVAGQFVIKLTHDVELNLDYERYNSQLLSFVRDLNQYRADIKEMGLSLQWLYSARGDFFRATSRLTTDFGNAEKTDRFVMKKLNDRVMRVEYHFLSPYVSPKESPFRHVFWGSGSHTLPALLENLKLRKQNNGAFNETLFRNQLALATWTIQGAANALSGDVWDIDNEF
Respond numerically; units are RLU and should not be typed.

Before answering, review these 5 worked examples.
- Binder: "CD71-binding FN3 domain of SEQ ID NO: 137 (designed binder) MSLPAPKNLVVSRVTEDSARLSWTAPDAAFDSFFIGYLEPQPPGEAITLYVPGSERSYDLTGLKPGTEYNVTIQGVKGGFPSDPLVAHFTT"
  Endpoint Value: "7.03e+06"
- Binder: "CD71-binding FN3 domain of SEQ ID NO: 207 (designed binder) MSLPAPKNLVVSRVTEDSARLSWTAPDAAFDSFEIGYWENAYKGEAIVLTVPGSERSYDLTGLKPGTEYVVFIGGVKGGVWSVPLSAISTT"
  Endpoint Value: "3.58e+06"
- Binder: "CD71-binding FN3 domain of SEQ ID NO: 200 (designed binder) MSLPAPKNLVVSRVTEDSARLSWTAPDAAFDSFEIGYFENLYLGEAIVLTVPGSERSYDLTGLKPGTEYWVQIGGVKGSNWSAPLSAIFTT"
  Endpoint Value: "3.49e+06"
- Binder: "CD71-binding FN3 domain of SEQ ID NO: 121 (designed binder) MSLPAPKNLVVSRVTEDSARLSWTAPDAAFDSFFIGYLEPQPPGEAITLYVPGSERSYDLTGLKPGTEYNVTIQGVKGGFPSAPLSAIFTT"
  Endpoint Value: "5.42e+06"
- Binder: "CD71-binding FN3 domain of SEQ ID NO: 187 (designed binder) MSLPAPKNLVVSRVTEDSARLSWTAPDAAFDSFEIGYWENAYKGEAIVLTVPGSERSYDLTGLKPGTEYRVWIGGVKGGVWSRPLSAIFTT"
  Endpoint Value: "3.06e+06"

Report RLU for CD71-binding FN3 domain of SEQ ID NO: 211 (designed binder) MSLPAPKNLVVSRVTEDSARLSWTAPDAAFDSFEIVYAEPVRFGEAIVLTVPGSERSYDLTGLKPGTEYWVQIGGVKGGEWSSLLSAIFTT
2.02e+06

Report RLU for CD71-binding FN3 domain of SEQ ID NO: 185 (designed binder) MGSLPAPKNLVVSRVTEDSARLSWTAPDAAFDSFEISYWEHTFNGEAIILFVPGSERSYDLTGLKPGTEYWVQIGGVKGGNWSAPLSAIFTT
2.26e+06

Report RLU for CD71-binding FN3 domain of SEQ ID NO: 122 (designed binder) MSLPAPKNLVVSRVTEDSARPSWTAPDAAFDSFEIGYFENLYLGEAIVLTVPGSERSYDLTGLKPGTEYYVHIGGVKGGIWSSPLSAYFTT
5.5e+06

Report RLU for CD71-binding FN3 domain of SEQ ID NO: 177 (designed binder) MSLPAPKNLVVSRVTEDSARLSWTAPDAAFDSFEIGYFENLYLGEAIVLTVPGSERSYDLTSLKPGTEYWVQIGGVKGGNWSAPLSAIFTT
3.22e+06
